// data source = ChEMBL document CHEMBL1131136

- Test system: P388
- MEASUREMENT PROTOCOL: Cytotoxicity evaluated against P388 cells.
- Type: functional, cell-based
- PROTOCOL CONDITIONS: Mus musculus
Overview of reported IC50 across a group of compounds:

(Q) Report its IC50 with P388 as the test system: CC[N+]1(C)CC[C@@](O)(c2ccccc2)[C@H](C(=O)c2ccccc2)C1 (some centres undefined)
(A) 1300 nM

(Q) Report its IC50 with P388 as the test system: CC[N+]1(C)CC[C@@](O)(c2ccc(Cl)c(Cl)c2)[C@H](C(=O)c2ccc(Cl)c(Cl)c2)C1 (some centres undefined)
(A) 2300 nM

(Q) Report its IC50 with P388 as the test system: `CCN1CC[C@@](O)(/C=C/c2ccc(C)cc2C)[C@H](C(=O)/C=C/c2ccc(C)cc2C)C1`
(A) 2590 nM

(Q) Report its IC50 with P388 as the test system: `CCN1CC[C@@](O)(c2ccc(Cl)cc2)[C@H](C(=O)c2ccc(Cl)cc2)C1`
(A) 5140 nM

###

- Test system: P388
- MEASUREMENT PROTOCOL: Cytotoxicity evaluated against P388 cells.
- Assay type: functional, cell-based
- PROTOCOL CONDITIONS: Mus musculus
Overview of reported pIC50 across a group of compounds:
Units for pIC50: none; it is -log10 of a concentration expressed in mol/L.

[[record]]
mol = "O=C(CCN1CCN(CCC(=O)c2ccccc2)CC1)c1ccccc1"
measured_quantity = "pIC50"
readout_number = 5.55

[[record]]
mol = "CCN(CC)CCC(=O)/C=C/c1ccc(C)cc1"
measured_quantity = "pIC50"
readout_number = 5.96

[[record]]
mol = "CCN1CC[C@@](O)(/C=C/c2ccc(Cl)c(Cl)c2)[C@H](C(=O)/C=C/c2ccc(Cl)c(Cl)c2)C1"
measured_quantity = "pIC50"
readout_number = 6.40


(Q) Given the compound `CCN1CC[C@@](O)(/C=C/c2ccc(Cl)cc2)[C@H](C(=O)/C=C/c2ccc(Cl)cc2)C1` , write its reported pIC50.
(A) 5.96

(Q) Given the compound `CCN(CC)CC(C)(C)C(=O)/C=C/c1ccc(Cl)cc1` , write its reported pIC50.
(A) 5.66

(Q) Given the compound `CCN(CC)CCC(=O)c1ccc(OC)cc1` , write its reported pIC50.
(A) 5.80

(Q) Given the compound `CCN1CC[C@@](O)(c2ccc(C)cc2)[C@H](C(=O)c2ccc(C)cc2)C1` , write its reported pIC50.
(A) 5.07

(Q) Given the compound `CCN(CC)CCC(=O)/C=C/c1ccc(Cl)cc1` , write its reported pIC50.
(A) 6.52

(Q) Given the compound `CCN(CC)CCC(=O)/C=C/c1ccc(Cl)c(Cl)c1` , write its reported pIC50.
(A) 6.41

(Q) Given the compound `CCN1CC[C@@](O)(c2ccccc2)[C@H](C(=O)c2ccccc2)C1` , write its reported pIC50.
(A) 5.97

(Q) Given the compound `CCN(CC)CCC(=O)c1ccccc1` , write its reported pIC50.
(A) 5.59

###

- Tested on: P388
- MEASUREMENT PROTOCOL: Cytotoxicity evaluated against P388 cells.
- Format: functional, cell-based
- PROTOCOL CONDITIONS: Mus musculus
MEASURED QUANTITY: pIC50
Units for pIC50: none; it is -log10 of a concentration expressed in mol/L.

Please review the entries below; each comes with its answer.
[[record]]
compound = "CC[N+]1(C)CC[C@@](O)(c2ccc(C)cc2)[C@H](C(=O)c2ccc(C)cc2)C1 (some centres undefined)"
readout_number = 5.68

[[record]]
compound = "CCN1CC[C@@](O)(/C=C/c2ccc(OC)cc2)[C@H](C(=O)/C=C/c2ccc(OC)cc2)C1"
readout_number = 5.30

[[record]]
compound = "CCN1CC[C@@](O)(/C=C/c2ccccc2C)[C@H](C(=O)/C=C/c2ccccc2C)C1"
readout_number = 5.72

[[record]]
compound = "CCN(CC)CCC(=O)/C=C/c1ccc(OC)cc1"
readout_number = 6.17


(Q) Given the compound CC[N+]1(C)CC[C@@](O)(/C=C/c2ccccc2)[C@H](C(=O)/C=C/c2ccccc2)C1.[Br-] (some centres undefined) , write its reported pIC50.
(A) 5.64

(Q) Given the compound CC[N+]1(C)CC[C@@](O)(/C=C/c2ccc(Cl)c(Cl)c2)[C@H](C(=O)/C=C/c2ccc(Cl)c(Cl)c2)C1 (some centres undefined) , write its reported pIC50.
(A) 6.19

(Q) Given the compound CC[N+]1(C)CC[C@@](O)(/C=C/c2ccc(C)cc2)[C@H](C(=O)/C=C/c2ccc(C)cc2)C1 (some centres undefined) , write its reported pIC50.
(A) 6.21

(Q) Given the compound `CCN(CC)CCC(=O)c1ccc(C)cc1` , write its reported pIC50.
(A) 5.66

(Q) Given the compound `CCN1CC[C@@](O)(c2ccc(Cl)c(Cl)c2)[C@H](C(=O)c2ccc(Cl)c(Cl)c2)C1` , write its reported pIC50.
(A) 5.51
